Each recorded value in this set is attributed to patent US20100048564A1.

- System name: human PPARγ2 (Homo sapiens)
- Sequence (P37231 whole entry): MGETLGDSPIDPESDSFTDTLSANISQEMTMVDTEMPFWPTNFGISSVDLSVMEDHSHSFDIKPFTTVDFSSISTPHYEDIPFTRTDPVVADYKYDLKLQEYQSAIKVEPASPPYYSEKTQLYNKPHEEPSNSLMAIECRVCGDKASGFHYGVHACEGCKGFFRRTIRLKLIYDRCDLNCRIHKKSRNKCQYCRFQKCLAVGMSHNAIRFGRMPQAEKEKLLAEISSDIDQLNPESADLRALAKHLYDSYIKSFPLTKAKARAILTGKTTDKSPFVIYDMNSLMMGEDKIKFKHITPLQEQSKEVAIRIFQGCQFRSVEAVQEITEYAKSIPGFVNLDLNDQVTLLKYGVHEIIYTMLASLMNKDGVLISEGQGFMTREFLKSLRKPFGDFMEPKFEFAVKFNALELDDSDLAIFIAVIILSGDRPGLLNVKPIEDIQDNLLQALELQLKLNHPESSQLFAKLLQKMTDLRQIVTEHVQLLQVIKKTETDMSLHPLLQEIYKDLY
- Assay text: Evaluation of PPARγ modulator activity, PPRE luciferase reporter in MG63 cells (Test Example 2)
- Condition: in the presence of Compound A; concentration representing (100−Imax)/2; MG63 cells, luciferase activity
hey, just use TRUE if measured IC50 is less than 60 nM, otherwise FALSE

The examples below pair each entry with its known result.
Cl.Cn1c(COc2cccc(C(=O)O)c2)nc2ccc(Oc3ccc(F)c(Cl)c3)cc21 [Example 12, hydrochloride]	TRUE
Cl.Cn1c(COc2cccc(C(=O)O)c2)nc2ccc(Oc3ccc(Cl)c(F)c3)cc21 [Example 10, hydrochloride]	TRUE
Cl.Cl.Cn1c(COc2cccc(C(=O)O)c2)nc2ccc(Oc3ccccc3)nc21 [Example 16, dihydrochloride]	FALSE
Cc1cc(Oc2ccc3nc(COc4cccc(C(=O)O)c4)n(C)c3c2)cc(C)c1N.Cl.Cl [Example 2, dihydrochloride]	TRUE

Lab note: next compound to report on.
Bench note: check whether Cl.Cn1c(COc2cccc(C(=O)O)c2)nc2ccc(Oc3cccc(F)c3)cc21 [Example 8, hydrochloride] shows IC50 below 60 nM
FALSE
